# System: Enterococcus sp.
# method-description: in vitro antibacterial evaluation, MIC by broth dilution
# Format: cell-based
# condition-description: broth dilution, inoculum 5×10^5 CFU/mL, 18 hours at 35° C.; strain ATCC 29212
Listed here are compounds together with their documented MIC Enterococcus faecalis (ATCC 29212).

compound: CC(c1ccccc1)C1NC(=O)CNC(=O)C(CO)NC(=O)C(C(O)C2CNC(=N)N2C2OC(CO)C(O)C(O)C2O)NC(=O)C(C(O)C2CNC(=N)N2)NC(=O)C(Cc2ccc(OC3OC(CO)C(OC4OC5COC6(CCSCC6)OC5C(O)C4O)C(O)C3O)cc2)NC1=O (stereo not shown)
unit-string: µg/mL
MIC Enterococcus faecalis (ATCC 29212): 16
//
compound: CC(c1ccccc1)C1NC(=O)CNC(=O)C(CO)NC(=O)C(C(O)C2CNC(=N)N2C2OC(CO)C(O)C(O)C2O)NC(=O)C(C(O)C2CNC(=N)N2)NC(=O)C(Cc2ccc(OC3OC(CO)C(OC4OC5COC6(OC5C(O)C4O)C4CCCC6CCC4)C(O)C3O)cc2)NC1=O (stereo not shown)
unit-string: µg/mL
MIC Enterococcus faecalis (ATCC 29212): 8
//
compound: CC(c1ccccc1)C1NC(=O)CNC(=O)C(CO)NC(=O)C(C(O)C2CNC(=N)N2C2OC(CO)C(O)C(O)C2O)NC(=O)C(C(O)C2CNC(=N)N2)NC(=O)C(Cc2ccc(OC3OC(CO)C(OC4OC5COC6(CCCCCCCCCCC6)OC5C(O)C4O)C(O)C3O)cc2)NC1=O (stereo not shown)
unit-string: µg/mL
MIC Enterococcus faecalis (ATCC 29212): 4
//
compound: CC(c1ccccc1)C1NC(=O)CNC(=O)C(CO)NC(=O)C(C(O)C2CNC(=N)N2C2OC(CO)C(O)C(O)C2O)NC(=O)C(C(O)C2CNC(=N)N2)NC(=O)C(Cc2ccc(OC3OC(CO)C(OC4OC5COC(c6cccc(Oc7ccccc7)c6)OC5C(O)C4O)C(O)C3O)cc2)NC1=O (stereo not shown)
unit-string: µg/mL
MIC Enterococcus faecalis (ATCC 29212): 4
